# System: PMA-differentiated THP-1 cells
# Assay Info: hTHP-1 assay containing 10% fetal bovine serum (IL-1β production, Tables B5 and B6)
# Format: cell-based, human
# Measurement Setup: read-out: hTHP-1 IC50 in 10% FBS; hTHP-1 assay containing 10% fetal bovine serum; Table B5; listed as 832
pIC50: −log10 of the molar value.
Assay Metric: pIC50

Cc1c(C(F)(F)F)nc2c(c1NC(=O)N=S(N)(=O)c1nn(C(C)(F)F)cc1F)CCC2 (single isomer, unassigned) [Compound 1004a] : 6.70 to 7.40

---

# System: PMA-differentiated THP-1 cells
# Assay Info: hTHP-1 assay containing 10% fetal bovine serum (IL-1β production, Tables B5 and B6)
# Format: cell-based, human
# Measurement Setup: read-out: hTHP-1 IC50 in 10% FBS; hTHP-1 assay containing 10% fetal bovine serum; Table B5; listed as 827
pIC50: −log10 of the molar value.
Assay Metric: pIC50

CC(C)n1cc(F)c(S(N)(=O)=NC(=O)Nc2c3c(nc(C(F)(F)F)c2C2CC2)CCC3)n1 (single isomer, unassigned) [Compound 1104b] : 5.30 to 6.00

---

# Tested on: PMA-differentiated THP-1 cells
# Assay Info: IL-1β production in PMA-differentiated THP-1 cells stimulated with gramicidin (hTHP-1 assay containing 2% fetal bovine serum; Procedures 1 and 2)
# Type: cell-based, human
# Measurement Setup: Homo sapiens, THP-1, Table B2; 2% fetal bovine serum; class symbols; read-out: hTHP-1 IC50
Assay Metric: IC50

Cc1cn(C(C)C)nc1S(N)(=O)=NC(=O)Nc1c2c(nc3c1CCC3)CCC2 (single isomer, unassigned) [Compound 687b] : 5 to 30 µM
CC(C)(O)c1ccnc(S(N)(=O)=NC(=O)Nc2c3c(nc4c2CCC4(C)C)CCC3)c1 (single isomer, unassigned) [Compound 620b] : 1 to 5 µM
Cc1c(C(F)(F)F)nc2c(c1NC(=O)N=S(N)(=O)c1ccn(C(C)C)n1)CCC2 (single isomer, unassigned) [Compound 628b] : 0.2 to 1 µM
Cc1nc2c(c(NC(=O)N=S(N)(=O)c3cc(C(C)(C)O)cs3)c1C(C)C)CCC2 (stereo not shown) [Compound 622] : 5 to 30 µM

---

# System: PMA-differentiated THP-1 cells
# Assay Info: IL-1β production in PMA-differentiated THP-1 cells stimulated with gramicidin (hTHP-1 assay containing 2% fetal bovine serum; Procedures 1 and 2)
# Format: cell-based, human
# Measurement Setup: read-out: hTHP-1 IC50 in 2% FBS; hTHP-1 assay containing 2% fetal bovine serum; Table B5; listed as 815
Assay Metric: IC50

CC(C)n1cc(F)c(S(N)(=O)=NC(=O)Nc2c3c(nc(C4CC4)c2C2CC2)CCC3)n1 (single isomer, unassigned) [Compound 1103a] : 0.04 to 0.2 µM

---

# System: PMA-differentiated THP-1 cells
# Assay Info: IL-1β production in PMA-differentiated THP-1 cells stimulated with gramicidin (hTHP-1 assay containing 2% fetal bovine serum; Procedures 1 and 2)
# Type: cell-based, human
# Measurement Setup: Table B4; 2% fetal bovine serum; class symbols; read-out: hTHP-1 IC50
IC50 overview
Assay Metric: IC50

CCn1cc(F)c(S(N)(=O)=NC(=O)Nc2c3c(nc(C(F)(F)F)c2-c2cccc(F)c2)CCC3)n1 (single isomer, unassigned) [Example 781] : 8 to 40 nM
CCn1cc(F)c(S(N)(=O)=NC(=O)Nc2c3c(nc(C(F)(F)F)c2-c2ccccc2F)CCC3)n1 (single isomer, unassigned) [Example 779] : 8 to 40 nM
CCn1cc(F)c(S(N)(=O)=NC(=O)Nc2c3c(nc(C(F)(F)F)c2C2CC2)CCC3)n1 (single isomer, unassigned) [Example 773] : 40 to 200 nM
CC1(C)CCc2c1nc1c(c2NC(=O)N=S(N)(=O)c2sc(C(O)(CO)CO)nc2CO)CCC1 (single isomer, unassigned) [Example 777] : 200 to 1000 nM
NS(=O)(=NC(=O)Nc1c2c(nc(C3CC3)c1C1CC1)CCC2)c1nn(C(F)F)cc1F (single isomer, unassigned) [Example 763] : 200 to 1000 nM
Cc1c(C(F)(F)F)nc2c(c1NC(=O)N=S(N)(=O)c1nn(-c3ccccc3)cc1F)CCC2 (single isomer, unassigned) [Example 783] : 1000 to 5000 nM
